Answer each item with its documented Number of aggregates in 3 * (1330 µm *1330 µm).
# ASSAY_TEXT: Aggregate analysis by widefield fluorescence microscopy
# Type: physicochemical
# EXPERIMENTAL_CONDITIONS: Fig S8 panels A, C; 3 fields of 1330 µm x 1330 µm
Could you respond with only the numeric value?

Specify reported Number of aggregates in 3 * (1330 µm *1330 µm) for the substance shown: HHHHKIKIQINMYYYY [TM16] 233.7

Specify reported Number of aggregates in 3 * (1330 µm *1330 µm) for the substance shown: KWKWQW [KB3] 27.67

Specify reported Number of aggregates in 3 * (1330 µm *1330 µm) for the substance shown: CKIKIQI [MG3b] 317

Specify reported Number of aggregates in 3 * (1330 µm *1330 µm) for the substance shown: HHHHKIKIKIKIYYYY [TM6] 147.3

Specify reported Number of aggregates in 3 * (1330 µm *1330 µm) for the substance shown: CHLHLQL [CN9] 36

Specify reported Number of aggregates in 3 * (1330 µm *1330 µm) for the substance shown: HIHIQIC [CN12] 33.33

Specify reported Number of aggregates in 3 * (1330 µm *1330 µm) for the substance shown: CQFQFQF [QBL4] 45.67

Specify reported Number of aggregates in 3 * (1330 µm *1330 µm) for the substance shown: KIKQIINMWQ [JG2] 39

Specify reported Number of aggregates in 3 * (1330 µm *1330 µm) for the substance shown: HHHHKIKIKIKIWWWW [TM4] 445.7

###

Answer each item with its documented Rel-to EFC (Feb-2021).
# System: HIV-1 infection of TZM-bl cells
# ASSAY_TEXT: HIV-1 infectivity enhancement assay, β-galactosidase luminescence
# Assay type: cell-based
# EXPERIMENTAL_CONDITIONS: Feb2021 run; n-fold infectivity relative to EF-C
Could you respond with only the numeric value?

Provide measured Rel-to EFC (Feb-2021) on HIV-1 infection of TZM-bl cells for KFKFQFF [TG6] please. 0.1218

Provide measured Rel-to EFC (Feb-2021) on HIV-1 infection of TZM-bl cells for KFKFQFNM [BL6a] please. 0.4715

Provide measured Rel-to EFC (Feb-2021) on HIV-1 infection of TZM-bl cells for CKAKAQA [TM155] please. 0.03153

Provide measured Rel-to EFC (Feb-2021) on HIV-1 infection of TZM-bl cells for KIKIKIKIWW [TM21] please. 0.3744

Provide measured Rel-to EFC (Feb-2021) on HIV-1 infection of TZM-bl cells for CKFKFQFNMWQ [BL2] please. 1.16

Provide measured Rel-to EFC (Feb-2021) on HIV-1 infection of TZM-bl cells for RGDKIKIQINM [MG8a / CN17] please. 0.4132

Provide measured Rel-to EFC (Feb-2021) on HIV-1 infection of TZM-bl cells for KIKIQINM [JGB2] please. 0.3627

Provide measured Rel-to EFC (Feb-2021) on HIV-1 infection of TZM-bl cells for CKAKAQANMWQ [BL8] please. 0.04371

Provide measured Rel-to EFC (Feb-2021) on HIV-1 infection of TZM-bl cells for CKFKQFF [CK15] please. 0.00675

Provide measured Rel-to EFC (Feb-2021) on HIV-1 infection of TZM-bl cells for QCKIKQIINM [CK5] please. 0.3503

Provide measured Rel-to EFC (Feb-2021) on HIV-1 infection of TZM-bl cells for CKIKIQINMWQ [MG1] please. 0.6998

Provide measured Rel-to EFC (Feb-2021) on HIV-1 infection of TZM-bl cells for QCKAKAQANMWQ [CK22] please. 0.07183

Provide measured Rel-to EFC (Feb-2021) on HIV-1 infection of TZM-bl cells for CKIKQII [MG4a] please. 0.04182

Provide measured Rel-to EFC (Feb-2021) on HIV-1 infection of TZM-bl cells for CKIKIQINMW [TM86] please. 1.295

Provide measured Rel-to EFC (Feb-2021) on HIV-1 infection of TZM-bl cells for QCKIKIQINMWQ [EF-C opt] please. 1.036

Provide measured Rel-to EFC (Feb-2021) on HIV-1 infection of TZM-bl cells for QCKFKQFFNMWQ [CK10] please. 0.2478

Provide measured Rel-to EFC (Feb-2021) on HIV-1 infection of TZM-bl cells for QCKIKIQI [CK3] please. 0.112

Provide measured Rel-to EFC (Feb-2021) on HIV-1 infection of TZM-bl cells for RGDKIKIQI [MG14] please. 0.01566

Provide measured Rel-to EFC (Feb-2021) on HIV-1 infection of TZM-bl cells for CKIKIQI [MG3b] please. 1.019

Provide measured Rel-to EFC (Feb-2021) on HIV-1 infection of TZM-bl cells for KAKAQANM [TM152] please. 0.009

###

Answer each item with its documented b -sheet / %.
# ASSAY_TEXT: β-sheet content by ATR-FT-IR
# Type: physicochemical
# EXPERIMENTAL_CONDITIONS: Fig. S7 panel A; β-sheet content by ATR-FT-IR
Number only, in %; omit the unit.

Specify reported b -sheet / % for the substance shown: KIEIQINM 42.99

Specify reported b -sheet / % for the substance shown: RGDSKIKIQIC 38.56

Specify reported b -sheet / % for the substance shown: CKIKIQIII 36.7

Specify reported b -sheet / % for the substance shown: QCKIKQIINM 38.44

Specify reported b -sheet / % for the substance shown: QCKFKQFFNM 41.8396

Specify reported b -sheet / % for the substance shown: HIHIQIC 48.25

Specify reported b -sheet / % for the substance shown: RGDKIKIQI 40.49

Specify reported b -sheet / % for the substance shown: KIKIQII 44.64

Specify reported b -sheet / % for the substance shown: NMWQKVGTPL 32.26

Specify reported b -sheet / % for the substance shown: KIKIQINM 41

Specify reported b -sheet / % for the substance shown: CKFKFQF 47.43

Specify reported b -sheet / % for the substance shown: CSISIQINM 55.93

Specify reported b -sheet / % for the substance shown: KFKFQFF 48.35

Specify reported b -sheet / % for the substance shown: QCKFKQFFNMWQ 41.78

Specify reported b -sheet / % for the substance shown: RGDKIKIQIC 40.73

Specify reported b -sheet / % for the substance shown: KIKQIINMWQ 40.68

Specify reported b -sheet / % for the substance shown: KIKIQINMW 45.5

Specify reported b -sheet / % for the substance shown: KFKFQFW 35.45

Specify reported b -sheet / % for the substance shown: KVKVKVQV 43.06

Specify reported b -sheet / % for the substance shown: MKIKIQINMWQ 39.2

Specify reported b -sheet / % for the substance shown: QCKFKQFF 32.34

Specify reported b -sheet / % for the substance shown: FKFDKFKFDK 46.64

Specify reported b -sheet / % for the substance shown: HGDKCHGDKC 4.749

Specify reported b -sheet / % for the substance shown: QCKIKIQI 35.27

Specify reported b -sheet / % for the substance shown: KIKQIIN 37.69

Specify reported b -sheet / % for the substance shown: KIKIQI 38.6

Specify reported b -sheet / % for the substance shown: HHHHKIKIQINMYYYY 46.73

Specify reported b -sheet / % for the substance shown: CEFEFQF 53

Specify reported b -sheet / % for the substance shown: KVKGVGK 8.763

Specify reported b -sheet / % for the substance shown: CKIKIQI 53

Specify reported b -sheet / % for the substance shown: KFKFQFNMW 38.191

Specify reported b -sheet / % for the substance shown: KIKIKIQINMWQ 39.61

Specify reported b -sheet / % for the substance shown: KIKIQIRGD 47.12

Specify reported b -sheet / % for the substance shown: CKWKWQW 34.2

Specify reported b -sheet / % for the substance shown: CETMYDKILKNLSRSR 62.1014

Specify reported b -sheet / % for the substance shown: QCKFKFQF 40.03

Specify reported b -sheet / % for the substance shown: KIKIQIC 52.93

Specify reported b -sheet / % for the substance shown: KAKQAANMWQ 10.94

Specify reported b -sheet / % for the substance shown: KIKIKIQI 40.16

Specify reported b -sheet / % for the substance shown: CKFKFQFNMWQ 47.05

Specify reported b -sheet / % for the substance shown: MKFKFQF 21.97

Specify reported b -sheet / % for the substance shown: KIKQII 38.67

Specify reported b -sheet / % for the substance shown: KIKIQINMAQ 45.78

Specify reported b -sheet / % for the substance shown: RGDKIKIQINM 45.52

Specify reported b -sheet / % for the substance shown: KIKIKIKI 40.46
